# protocol text: self-splicing fitness, log relative to wild type (ln ratio); higher = more splicing; Tetrahymena group I intron in knt gene, E. coli kanamycin selection, DiMSum; sequences stand for … in CUCUCU…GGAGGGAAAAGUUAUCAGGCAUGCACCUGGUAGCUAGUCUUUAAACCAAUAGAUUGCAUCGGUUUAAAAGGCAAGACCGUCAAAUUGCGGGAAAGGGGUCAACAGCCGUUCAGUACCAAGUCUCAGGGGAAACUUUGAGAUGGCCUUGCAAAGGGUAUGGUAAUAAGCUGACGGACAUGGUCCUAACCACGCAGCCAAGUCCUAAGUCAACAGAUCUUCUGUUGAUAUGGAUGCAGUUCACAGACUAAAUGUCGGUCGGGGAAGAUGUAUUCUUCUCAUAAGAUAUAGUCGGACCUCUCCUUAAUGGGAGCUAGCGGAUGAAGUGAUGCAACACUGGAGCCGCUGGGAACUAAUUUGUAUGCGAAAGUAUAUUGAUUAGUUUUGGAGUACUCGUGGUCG;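 further: selection with 25 µg/mL kanamycin versus none on LB agar overnight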
# condition summary: 30 °C
Classification field: enter Yes for self-splicing fitness (ln) values not below -3, No for values below it.

Examples from the recorded data:
| sequence input | assigned category |
| --- | --- |
| GGAUAGCAAUAUUACGCCCA | Yes |
| GCUAAGCAAUAUUACGCUAA | No |
| UAACAGCAAUAUUACGGGUG | Yes |

Quick check, self-splicing fitness (ln) >= -3? UGUCAGCAAUAUUACGCUCC
Yes

Quick check, self-splicing fitness (ln) >= -3? CAUAAGCAAUAUUACGCACA
Yes

Quick check, self-splicing fitness (ln) >= -3? UCAAAGCAAUAUUACGUACA
Yes

Quick check, self-splicing fitness (ln) >= -3? GCAAAGCAAUAUUACGCCCG
Yes
